# Test system: Macaca fascicularis PRLR (mfPRLR.mmh; SEQ ID NO:403)
# Sequence (as listed by the source): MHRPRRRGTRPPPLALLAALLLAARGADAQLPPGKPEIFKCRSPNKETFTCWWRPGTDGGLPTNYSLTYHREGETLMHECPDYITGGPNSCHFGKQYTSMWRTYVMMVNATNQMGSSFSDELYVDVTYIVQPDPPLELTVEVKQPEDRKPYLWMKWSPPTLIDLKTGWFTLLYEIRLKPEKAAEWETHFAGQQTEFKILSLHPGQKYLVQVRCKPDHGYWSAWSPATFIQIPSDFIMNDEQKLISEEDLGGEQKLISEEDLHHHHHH
# ASSAY SUMMARY: Surface plasmon resonance (Biacore T200), antibody-capture format
# Format: binding
# RECORDED CONDITIONS: 37° C., analyte mfPRLR.mmh
ASSAY ENDPOINT: ka (M/s)
A number alone suffices; assume M/s.

Request: Look up and state reported ka for H1H6762P: fully human anti-PRLR antibody, human IgG1 Fc; HCVR/LCVR SEQ ID NOs 2/10 (antibody, V domains shown) VH: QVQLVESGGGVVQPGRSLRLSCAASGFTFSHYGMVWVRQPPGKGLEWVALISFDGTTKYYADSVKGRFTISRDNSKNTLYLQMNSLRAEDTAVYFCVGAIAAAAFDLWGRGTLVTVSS VL: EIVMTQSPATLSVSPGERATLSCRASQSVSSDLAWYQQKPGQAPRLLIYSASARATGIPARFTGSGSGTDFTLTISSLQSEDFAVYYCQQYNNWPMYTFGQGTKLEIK
Result: 679000

Hey, just so you know, these numbers are from patent US10925971B2.
